Test system: Staphylococcus aureus (BCM-012)
experimentDescription: Antimicrobial activity, microdilution in microtiter plate (MIC)
Format: cell-based
experimentalSetup: Staphylococcus aureus BCM-012 (SALVAT collection); two-fold serial dilutions, 96 well plates; incubation 24 h at 35° C.
parameterMeasured: BCM-012 MIC (µg/mL)
Give bare numbers, in µg/mL.

> print(dat)
                                   molecule  parametermeasured  numericvalue
1  Cc1ncc(-c2cccc(C(=O)NCC(=O)N3CCN(c4ccc(-c5cc(CNc6ccon6)on5)cc4F)CC3)c2)s1        BCM-012 MIC             1
2  CC(=O)Nc1ccc(C(=O)NCC(=O)N2CCN(c3ccc(-c4cc(CNc5ccon5)on4)cc3F)CC2)cn1        BCM-012 MIC             1
3  C#CCn1c(C)nc2cc(C(=O)NCC(=O)N3CCN(c4ccc(-c5cc(CNc6ccon6)on5)cc4F)CC3)ccc21        BCM-012 MIC             1

For each of the molecules below, state BCM-012 MIC.
1. O=C(NC(C(=O)N1CCN(c2ccc(-c3cc(CNc4ccon4)on3)cc2F)CC1)c1ccccc1)c1ccc2[nH]cnc2c1 (stereo not drawn)
2. O=CNCC(=O)N1CCN(c2ccc(-c3cc(CNc4ccon4)on3)cc2F)CC1
3. Cc1ccc(C(=O)N[C@@H](C)C(=O)N2CCN(c3ccc(-c4cc(CO)on4)cc3F)CC2)cn1

(A)
1. 2
2. 1
3. 1

Hey, can you go through the list below and give me BCM-012 MIC for every item?
1. C[C@@H](NC(=O)c1ncccc1N)C(=O)N1CCN(c2ccc(-c3cc(CNc4ccon4)on3)cc2F)CC1
2. CNCC(=O)NCC(=O)N1CCN(c2ccc(-c3cc(CNc4ccon4)on3)cc2F)CC1

(A)
2
2

Data origin: patent US20100075984A1
